# Experimental Target: SMARCA2 (Homo sapiens)
# Sequence (P51531 whole entry): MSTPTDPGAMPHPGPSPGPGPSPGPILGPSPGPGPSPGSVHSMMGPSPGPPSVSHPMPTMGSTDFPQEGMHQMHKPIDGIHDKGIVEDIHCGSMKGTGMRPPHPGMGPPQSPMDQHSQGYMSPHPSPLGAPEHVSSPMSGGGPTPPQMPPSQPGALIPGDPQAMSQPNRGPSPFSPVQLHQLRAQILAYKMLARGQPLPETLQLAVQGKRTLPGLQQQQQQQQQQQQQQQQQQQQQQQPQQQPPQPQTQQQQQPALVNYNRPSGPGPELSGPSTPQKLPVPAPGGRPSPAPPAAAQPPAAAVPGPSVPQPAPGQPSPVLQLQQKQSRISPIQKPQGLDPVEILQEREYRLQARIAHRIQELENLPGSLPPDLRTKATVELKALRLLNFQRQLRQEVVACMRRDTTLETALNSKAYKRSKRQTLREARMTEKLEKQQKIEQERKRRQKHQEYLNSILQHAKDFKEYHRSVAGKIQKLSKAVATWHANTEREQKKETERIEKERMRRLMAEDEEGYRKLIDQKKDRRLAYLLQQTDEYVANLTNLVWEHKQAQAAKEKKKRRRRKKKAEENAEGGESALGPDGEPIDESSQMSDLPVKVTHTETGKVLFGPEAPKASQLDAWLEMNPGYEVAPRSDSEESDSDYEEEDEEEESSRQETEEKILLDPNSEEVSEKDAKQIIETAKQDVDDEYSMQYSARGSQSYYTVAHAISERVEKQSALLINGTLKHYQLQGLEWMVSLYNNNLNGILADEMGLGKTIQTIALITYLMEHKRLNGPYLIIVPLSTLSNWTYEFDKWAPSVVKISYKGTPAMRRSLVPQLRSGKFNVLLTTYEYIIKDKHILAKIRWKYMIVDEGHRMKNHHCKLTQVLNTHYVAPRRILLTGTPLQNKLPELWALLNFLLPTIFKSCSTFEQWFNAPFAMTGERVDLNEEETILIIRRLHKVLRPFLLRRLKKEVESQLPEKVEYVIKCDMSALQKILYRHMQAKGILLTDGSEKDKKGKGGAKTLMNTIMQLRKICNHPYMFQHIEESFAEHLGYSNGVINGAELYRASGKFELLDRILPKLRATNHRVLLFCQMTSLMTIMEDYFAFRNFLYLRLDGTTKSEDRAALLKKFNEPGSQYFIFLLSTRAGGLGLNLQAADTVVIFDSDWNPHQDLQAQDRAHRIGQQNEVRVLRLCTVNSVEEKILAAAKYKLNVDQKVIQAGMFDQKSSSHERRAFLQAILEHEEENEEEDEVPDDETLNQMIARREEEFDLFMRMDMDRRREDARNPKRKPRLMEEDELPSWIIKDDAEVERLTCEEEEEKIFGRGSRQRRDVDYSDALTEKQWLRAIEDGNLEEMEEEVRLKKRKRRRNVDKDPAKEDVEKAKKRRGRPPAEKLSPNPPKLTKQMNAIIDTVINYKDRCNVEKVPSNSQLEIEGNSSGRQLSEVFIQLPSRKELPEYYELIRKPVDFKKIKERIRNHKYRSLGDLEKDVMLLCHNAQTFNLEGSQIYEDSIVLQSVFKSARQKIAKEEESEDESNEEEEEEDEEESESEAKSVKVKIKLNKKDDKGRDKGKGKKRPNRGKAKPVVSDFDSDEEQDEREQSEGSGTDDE
# Protocol: MSD SMARCA2 degradation in A549 cell line
# Type: cell-based
# Conditions Used: A549 cells, 24 h, read-out: SMARCA2 MSD A549 degradation 24 h: Average external-Abs DC50
The following compounds are listed with their measured DC50 values.

C#Cc1cc(Cl)c(CNC(=O)[C@@H]2C[C@@H](O)CN2C(=O)[C@@H](NC(=O)[C@H]2CC3(C2)C[C@H](N2CCC(N4CCC(N5CCN6c7cc(-c8ccccc8O)nnc7NC[C@H]6C5)CC4)CC2)C3)C(C)(C)C)c(OC)c1 (some centres unmarked) [I-329] yielded DC50 of > 100 nM

// switching to the query compound
C#Cc1ccc(CNC(=O)[C@@H]2C[C@@H](O)CN2C(=O)[C@@H](NC(=O)N2CCC(CN3CCC(N4CCC(N5CCc6[nH]c7nnc(-c8ccccc8O)cc7c6[C@H]5C)CC4)CC3)CC2)C(C)(C)C)cc1 [I-189] yielded DC50 of > 100 nM

---

# Experimental Target: SMARCA2 (Homo sapiens)
# Protocol: MSD SMARCA2 degradation in A549 cell line
# Assay type: cell-based
# Conditions Used: A549 cells, 24 h, read-out: SMARCA2 MSD A549 degradation 24 h: Average external-Abs DC50
Reported Metric: DC50

Readout DC50 for C#Cc1ccc(CNC(=O)[C@@H]2C[C@@H](O)CN2C(=O)[C@@H](NC(=O)[C@H]2CCC3(CC2)C[C@H](N2CCC(c4cnc(N5CCN6c7cc(-c8cccc(Cl)c8O)nnc7NC[C@@H]6C5)nc4)CC2)C3)C(C)(C)C)cc1 (single isomer, unassigned) [I-153] , test system SMARCA2 (Homo sapiens), was > 100 nM

Readout DC50 for C#Cc1ccc(CNC(=O)[C@@H]2C[C@@H](O)CN2C(=O)[C@@H](NC(=O)[C@H]2CCC3(CC2)C[C@H](N2CCN(c4cnc(N5CCN6c7cc(-c8ccccc8O)nnc7NC[C@H]6C5)nc4)CC24CC4)C3)C(C)(C)C)cc1 (stereo partly shown) [I-266] , test system SMARCA2 (Homo sapiens), was 50 to 100 nM

Readout DC50 for C#Cc1ccc(CNC(=O)[C@@H]2C[C@@H](O)CN2C(=O)[C@@H](NC(=O)[C@H]2CCC3(CC2)C[C@H](N2CCN(c4cnc(N5CCN6c7cc(-c8ccccc8O)nnc7NC[C@H]6C5)nc4)CC24CC4)C3)C(C)(C)C)cc1 (stereo partly shown) [I-267] , test system SMARCA2 (Homo sapiens), was 50 to 100 nM

Readout DC50 for C#Cc1ccc(CNC(=O)[C@@H]2C[C@@H](O)CN2C(=O)[C@@H](NC(=O)N2CCC(N3CC4(CC(N5CC6(CC(N7CCc8[nH]c9nnc(-c%10ccccc%10O)cc9c8[C@H]7C)C6)C5)C4)C3)CC2)C(C)(C)C)cc1 , test system SMARCA2 (Homo sapiens), was > 100 nM

Readout DC50 for C#Cc1ccc(CNC(=O)[C@@H]2C[C@@H](O)CN2C(=O)[C@@H](NC(=O)[C@H]2CC3(C2)C[C@H](N2CCC(N4CCC(N5CCN6c7cc(-c8ccccc8O)nnc7NC[C@H]6C5)CC4)CC2)C3)C(C)(C)CCO)cc1 (single isomer, unassigned) [I-364] , test system SMARCA2 (Homo sapiens), was > 100 nM

Readout DC50 for CC#Cc1ccc(CNC(=O)[C@@H]2C[C@@H](O)CN2C(=O)[C@@H](NC(=O)N2CC3(CC(N4CCC(c5cnc(N6CCc7[nH]c8nnc(-c9ccccc9O)cc8c7[C@H]6C)nc5)CC4)C3)C2)C(C)(C)C)c(OC)c1 , test system SMARCA2 (Homo sapiens), was 50 to 100 nM

Readout DC50 for C#Cc1ccc(CNC(=O)[C@@H]2C[C@@H](O)CN2C(=O)[C@@H](NC(=O)N2CCC(N3CCC(N4CC5(CC(N6CCc7[nH]c8nnc(-c9ccccc9O)cc8c7[C@H]6C)C5)C4)CC3)CC2)C(C)(C)C)cc1 , test system SMARCA2 (Homo sapiens), was > 100 nM

Readout DC50 for C#Cc1ccc([C@H](C)NC(=O)[C@@H]2C[C@@H](O)CN2C(=O)[C@@H](NC(=O)N2CC3(CC(N4CCC(c5cnc(N6CCc7[nH]c8nnc(-c9ccccc9O)cc8c7[C@H]6C)nc5)CC4)C3)C2)C(C)(C)C)c(O)c1 , test system SMARCA2 (Homo sapiens), was < 10 nM

Readout DC50 for C#Cc1ccc(CNC(=O)[C@@H]2C[C@@H](O)CN2C(=O)[C@@H](NC(=O)N2CC3(CC(N4CCC(c5cnc(N6CCc7[nH]c8nnc(-c9ccccc9O)cc8c7[C@@H]6CO)nc5)CC4)C3)C2)C(C)(C)C)cc1 , test system SMARCA2 (Homo sapiens), was 50 to 100 nM

Readout DC50 for C#Cc1ccc([C@H](C)NC(=O)[C@@H]2C[C@@H](O)CN2C(=O)[C@H](c2cc(OCCN3CCC(N4CCC(N5CCC(CN6CCN7c8cc(-c9ccccc9O)nnc8NC[C@H]7C6)CC5)CC4)CC3)no2)C(C)C)cc1 (single isomer, unassigned) , test system SMARCA2 (Homo sapiens), was 10 to 50 nM

Readout DC50 for C#Cc1ccc(CNC(=O)[C@@H]2C[C@@H](O)CN2C(=O)[C@@H](NC(=O)N2CCN(Cc3ccc(-c4cnc(N5CCN6c7cc(-c8ccccc8O)nnc7NC[C@H]6C5)nc4)cc3)CC2)C(C)(C)C)cc1 , test system SMARCA2 (Homo sapiens), was 10 to 50 nM

Readout DC50 for Cc1ncsc1-c1ccc(CNC(=O)[C@@H]2C[C@@H](O)CN2C(=O)[C@@H](NC(=O)[C@H]2CC3(CC[C@H](N4CCN(c5ccnc(N6CCc7[nH]c8nnc(-c9ccccc9O)cc8c7[C@H]6C)n5)CC4)CC3)C2)C(C)(C)C)cc1 (stereo partly shown) [I-80] , test system SMARCA2 (Homo sapiens), was < 10 nM

Readout DC50 for C#Cc1ccc(CNC(=O)[C@@H]2C[C@@H](O)CN2C(=O)[C@@H](NC(=O)[C@H]2CCC3(CC2)C[C@H](N2CCC(c4cnc(N5CCN6c7cc(-c8ccccc8O)nnc7NC[C@H]6C5)nc4)CC2)C3)C(C)(C)C)c(OCCCN(C)C)c1 (single isomer, unassigned) [I-158] , test system SMARCA2 (Homo sapiens), was 50 to 100 nM

Readout DC50 for C#Cc1ccc(CNC(=O)[C@@H]2C[C@@H](O)CN2C(=O)[C@@H](NC(=O)C2CCN(C[C@H]3CC[C@@H](N4CCc5[nH]c6nnc(-c7ccccc7O)cc6c5[C@H]4C)CC3)CC2)C(C)(C)C)cc1 (single isomer, unassigned) , test system SMARCA2 (Homo sapiens), was > 100 nM

Readout DC50 for CC#Cc1ccc(CNC(=O)[C@@H]2C[C@@H](O)CN2C(=O)[C@@H](NC(=O)N2CC3(CC(N4CCC(c5cnc(N6CCc7[nH]c8nnc(-c9ccccc9O)cc8c7[C@H]6C)nc5)CC4)C3)C2)C(C)(C)C)cc1 , test system SMARCA2 (Homo sapiens), was 50 to 100 nM

Readout DC50 for Cc1ncsc1-c1ccc(CNC(=O)[C@@H]2C[C@@H](O)CN2C(=O)C(c2cc(OC[C@H]3CC[C@H](N4CCC(c5cnc(N6CCc7[nH]c8nnc(-c9ccccc9O)cc8c7[C@@H]6C)nc5)CC4)CC3)no2)C(C)C)cc1 (single isomer, unassigned) , test system SMARCA2 (Homo sapiens), was 10 to 50 nM

Values were extracted from patent US20250170248A1.
